Experiment: small-molecule microarray binders of probe aXIP, primary screen, biochemical, NeuroSMM set, 635/667 nm fluorescence (AID 1119);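 note: probe is the protein aXip251-270 applied at 1 µg/mL to compound-printed slides; binding of probe to printed compounds measured as 667 nm fluorescence plus signal to noise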
Settings: higher = more signal, called active from +8 up or from −8 down
Would you mind classing the entries by composite Z-score? Ranges: low (below -0.06), medium (-0.06 to below 0.3), high (0.3 or more)

- MOLECULE: "CCOC(=O)[C@H](Cc1ccccc1)NC(=O)OC1CC(CCC2CC(CC)=NO2)OC2(CCCC(COC(=O)NCCC(C)C)O2)C1 (some centres undefined)"
  CLASS_LABEL: "medium"
- MOLECULE: "COC(=O)[C@H]1O[C@@H](c2c(OC)c(OC)c(C)c(OC)c2OC)[C@H](C)[C@@H](O)[C@H]1C"
  CLASS_LABEL: "medium"
- MOLECULE: "CC(CCC(=O)OC[C@H]1O[C@H](C#Cc2ccccc2)C=C[C@@H]1Oc1ccc(C)cc1)=NO[C@H](C)c1cn([C@H](CO)Cc2ccccc2)nn1"
  CLASS_LABEL: "high"
- MOLECULE: "CON=C[C@@H](C)[C@H](OCc1ccccc1)C(C)C"
  CLASS_LABEL: "low"
- MOLECULE: "CCOC(=O)[C@H](Cc1ccccc1)NC(=O)CCC1CC(OC(=O)NCc2ccc3c(c2)OCO3)CC2(CCCC(COC(=O)NCCC(C)C)O2)O1 (some centres undefined)"
  CLASS_LABEL: "high"

Request: Bin? C=CC[C@@H]1C=C[C@H](ON=C(C)CCC(=O)OC[C@H]2O[C@H](C#Cc3ccccc3)C=C[C@@H]2Oc2ccc(C)cc2)[C@@H](CO)O1
Response: medium

Request: Bin? CO[C@H]1COC(=O)[C@@H]2CCCN2C(=O)CC=C[C@@H](C)[C@H](OC)COC(=O)[C@@H](OCc2ccccc2)C=C[C@@H]1C
Response: low

Request: Bin? CC=CC1=C(CO)C(=O)[C@@H]2O[C@@H]2C1=O
Response: high

Request: Bin? CO[C@H]1COC(=O)CC=C[C@H](C)[C@@H](OC)COC(=O)[C@H](C)COC(=O)CC=C[C@@H]1C
Response: high

Request: Bin? CCOC(=O)[C@H](Cc1ccccc1)NC(=O)CCC1CC(OC(=O)NCCc2ccc(F)cc2)CC2(CCCC(COC(=O)NCCc3ccc(Cl)cc3)O2)O1 (some centres undefined)
Response: medium

Request: Bin? C#CCCCON=C1C[C@@H](O)[C@@H](O)[C@@H]2[C@@H]3C(=O)N(Cc4ccccc4)C(=O)[C@@H]3CC[C@@H]12
Response: medium

Request: Bin? CCOC(=O)[C@H](CC(C)C)NC(=O)CCC1CC(OC(=O)NCc2ccc3c(c2)OCO3)CC2(CCCC(COC(=O)NCc3cccc(C(F)(F)F)c3)O2)O1 (some centres undefined)
Response: low

Request: Bin? CCC(=O)[C@@]1(O)C(=O)N2C(=C3C(=O)OCC[C@@H]31)N(Cc1ccccc1)C(C)=C(C(=O)OC)[C@H]2c1ccccc1
Response: medium

Request: Bin? CCOC(=O)NN=C1C[C@@H](O)[C@@H](O)[C@@H]2[C@@H]3C(=O)N(Cc4ccc5c(c4)OCO5)C(=O)[C@@H]3CC[C@H]12
Response: medium

Request: Bin? CCc1cc2c(nc1CC)CCN(CCC(C)=NOC[C@H]1O[C@H](c3ccccc3)C=C[C@@H]1Oc1ccc(OC)cc1)C2
Response: medium

Request: Bin? CO[C@H]1COC(=O)CC=C[C@@H](C)[C@H](NS(=O)(=O)c2ccc(C)cc2)COC(=O)CCC[C@@H]1C
Response: low

Request: Bin? COc1ccc(COC(=O)NN=C2C[C@@H](O)[C@@H](O)[C@@H]3[C@@H]4C(=O)N(Cc5ccccc5)C(=O)[C@@H]4CC[C@H]23)cc1
Response: low

Request: Bin? O=C1CCCC=C1C(CCc1ccccc1)OC(=O)c1ccc(Br)cc1 (centres undefined)
Response: low

###

Target: Torsin-1A (Homo sapiens) (UniProt O14656)
Sequence (O14656 whole entry, looked up): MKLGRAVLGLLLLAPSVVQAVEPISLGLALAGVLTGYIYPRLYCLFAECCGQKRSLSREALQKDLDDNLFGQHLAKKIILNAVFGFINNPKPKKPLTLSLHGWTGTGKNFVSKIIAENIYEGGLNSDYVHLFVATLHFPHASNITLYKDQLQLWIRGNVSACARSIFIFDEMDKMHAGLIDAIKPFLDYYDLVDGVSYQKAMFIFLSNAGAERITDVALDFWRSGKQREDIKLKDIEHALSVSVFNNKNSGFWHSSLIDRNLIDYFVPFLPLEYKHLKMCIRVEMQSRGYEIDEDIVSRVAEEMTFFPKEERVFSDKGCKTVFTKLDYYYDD
Experiment: torsin A binders from cell lysate, primary screen, small-molecule microarray, wild-type, 635/667 nm (AID 1149)
Settings: COS7 hTOR1A-WT lysate, 635 nm fluorescence, higher = more signal
I'd appreciate it if you could supply composite z-score values for the items below.
Numbers only.

Some entries whose results are on file:
- CHEMICAL_SMILES: "CC(C)CON=C1C[C@@H](O)[C@@H](O)[C@@H]2[C@@H]3C(=O)N(c4cccc(Oc5ccccc5)c4)C(=O)[C@@H]3CC[C@@H]12"
  composite z-score: 0.486
- CHEMICAL_SMILES: "O=C(NN=C1C[C@@H](O)[C@@H](O)[C@@H]2[C@@H]3C(=O)N(C4CCCCC4)C(=O)[C@@H]3CC[C@H]12)OCc1ccccc1"
  composite z-score: 0.118

Lab note: next compound to report on.
Query C#CCCCON=C1C[C@@H](O)[C@@H](O)[C@@H]2[C@@H]3C(=O)N(c4ccc(F)cc4F)C(=O)[C@@H]3CC[C@@H]12 yields composite z-score of 0.061

###

I'd appreciate it if you could supply z-score values for the items below.
Assay: PSAC antagonists in infected red cells, primary screen, cell-based, P. falciparum Indochina, OD700, 18 h (AID 1157)
Conditions: P. falciparum Indochina infected erythrocytes, osmotic lysis OD700, 18 h; higher = more signal, called active from +8 up or from −8 down
Answers are plain numbers.

- COMPOUND: "CCOC(=O)[C@H](CC(C)C)NC(=O)CCC1CC(OC(=O)NCCc2ccc(F)cc2)CC2(CCCC(COC(=O)NCC(c3ccccc3)c3ccccc3)O2)O1 (stereo partly drawn)"
  z-score: -0.316
- COMPOUND: "COC(=O)CC=C[C@@H](C)[C@@H]1C=C[C@H](O)[C@@H](CO)O1"
  z-score: -0.0707
- COMPOUND: "CCOC(=O)[C@H](Cc1ccccc1)NC(=O)CCC1CC(OC(=O)NCc2cccc3ccccc23)CC2(CCCC(COC(=O)NCC(c3ccccc3)c3ccccc3)O2)O1 (stereo partly drawn)"
  z-score: -0.343
- COMPOUND: "CCc1cc2c(nc1CC)CCN(CCC(C)=NO[C@@H](C)c1cn([C@H](CO)Cc3ccccc3)nn1)C2"
  z-score: 0.49
- COMPOUND: "O=C1C=C[C@@H](O)[C@@H]2[C@@H]3C(=O)N(C[C@@H]4CCCO4)C(=O)[C@@H]3CC[C@@H]12"
  z-score: 0.281

Hey, can you go through the list below and give me z-score for every item?
1. CCOC(=O)NN=C1C[C@@H](O)[C@@H](O)[C@@H]2[C@@H]3C(=O)N(Cc4ccc5c(c4)OCO5)C(=O)[C@@H]3CC[C@H]12
2. C=CC1=C[C@H](O)[C@@H]2O[C@@H]2C12OCCCO2
3. COC(=O)NCC=Cc1nc(CCCO)co1

Response:
1. 0.476
2. -0.121
3. -0.145

###

I'd appreciate it if you could supply composite z-score values for the items below.
Molecular target: Dickkopf-related protein 1 (Homo sapiens) (UniProt O94907)
Sequence (O94907 whole entry, looked up): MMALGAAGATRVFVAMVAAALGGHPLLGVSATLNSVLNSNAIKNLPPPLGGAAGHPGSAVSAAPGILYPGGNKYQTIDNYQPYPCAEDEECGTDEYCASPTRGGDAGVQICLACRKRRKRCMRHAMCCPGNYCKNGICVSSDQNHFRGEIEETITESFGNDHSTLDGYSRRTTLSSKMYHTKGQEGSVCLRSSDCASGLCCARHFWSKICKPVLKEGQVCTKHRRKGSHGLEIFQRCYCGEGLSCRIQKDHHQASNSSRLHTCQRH
Test: DKK1 binders on small-molecule microarrays, primary screen, biochemical, small-molecule microarray, 635 nm fluorescence scan (AID 1106);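 note: score merges emission near 667 nm with signal to noise over three replicate slides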
Conditions: DKK1 binding, higher = more signal
Numbers only.

Some entries whose results are on file:
- COMPOUND: "COc1ccc(COC(=O)NN=C2C[C@@H](O)[C@@H](O)[C@@H]3[C@@H]4C(=O)N(c5ccc(F)cc5F)C(=O)[C@@H]4CC[C@H]23)cc1"
  VALUE_TYPE: "composite z-score"
  VALUE_OBSERVED: -1.13
- COMPOUND: "CO[C@H]1COC(=O)[C@@H](C)COC(=O)[C@H](COCc2ccccc2)NC(=O)CC=C[C@H]1C"
  VALUE_TYPE: "composite z-score"
  VALUE_OBSERVED: 0.705
- COMPOUND: "C[C@@H]1NC(=O)[C@@H](C)COC(=O)[C@H](C)NC(=O)[C@@H](C)COC1=O"
  VALUE_TYPE: "composite z-score"
  VALUE_OBSERVED: 0.769
- COMPOUND: "CO[C@H]1COC(=O)CC=C[C@H](C)[C@@H](OC)COC(=O)[C@H](C)COC(=O)CC=C[C@@H]1C"
  VALUE_TYPE: "composite z-score"
  VALUE_OBSERVED: 1.78
- COMPOUND: "CCOC(=O)[C@H](Cc1ccccc1)NC(=O)CCC1CC(OC(=O)NCCc2ccc(F)cc2)CC2(CCCC(COC(=O)NCc3ccccc3)O2)O1 (stereo partly specified)"
  VALUE_TYPE: "composite z-score"
  VALUE_OBSERVED: 0.529
- COMPOUND: "CC(CCN1CCc2nc(-c3ccccc3)c(-c3ccccc3)cc2C1)=NOC[C@@H](O)[C@H]1O[C@@H]2OC(C)(C)O[C@@H]2[C@H]1O"
  VALUE_TYPE: "composite z-score"
  VALUE_OBSERVED: 0.341

Hey, can you go through the list below and give me composite z-score for every item?
1. COc1ccc(O[C@H]2C=C[C@@H](c3ccccc3)O[C@@H]2CON=C(C)C)cc1
2. CCOC(=O)CCN1C(=O)[C@H]2[C@H]3[C@H](O)[C@H](O)CC(=NOCc4ccccc4)[C@H]3CC[C@H]2C1=O
3. C[C@@H](c1ccccc1)N1C(=O)[C@H]2[C@H]3[C@H](O)[C@H](O)CC(=NOCc4ccccc4)[C@H]3CC[C@H]2C1=O
4. CCOC(=O)[C@H](CC(C)C)NC(=O)CCC1CC(OC(=O)NCc2cccc3ccccc23)CC2(CCCC(COC(=O)NCCc3ccc(Cl)cc3)O2)O1 (stereo partly specified)
5. CC(=O)OC[C@H]1O[C@H](C#Cc2ccccc2)C=C[C@@H]1OC(C)=O
6. COC(=O)CC=C[C@H](C)[C@@H](OCc1cccc(Br)c1)[C@@H](C)[C@H](OC)C1CCCCC1
7. CC1O[C@H]2C3=C(C(=O)[C@@H]4O[C@@H]4[C@H]3O)[C@@H]1C1[C@@H](C)OC=C3[C@H](O)C4O[C@@H]4C(=NOCc4ccccc4)[C@]312 (stereo partly specified)

Response:
1. -0.292
2. -1.06
3. 0.312
4. 0.323
5. 0.57
6. 0.515
7. 0.155
